Biological target: T1, recombinant cynomolgus C1r2s2 tetramer (cynomolgus monkey, limits assumed)
T1 construct: also called cyC1r2s2; monkey C1r2s2
T1 chain 1: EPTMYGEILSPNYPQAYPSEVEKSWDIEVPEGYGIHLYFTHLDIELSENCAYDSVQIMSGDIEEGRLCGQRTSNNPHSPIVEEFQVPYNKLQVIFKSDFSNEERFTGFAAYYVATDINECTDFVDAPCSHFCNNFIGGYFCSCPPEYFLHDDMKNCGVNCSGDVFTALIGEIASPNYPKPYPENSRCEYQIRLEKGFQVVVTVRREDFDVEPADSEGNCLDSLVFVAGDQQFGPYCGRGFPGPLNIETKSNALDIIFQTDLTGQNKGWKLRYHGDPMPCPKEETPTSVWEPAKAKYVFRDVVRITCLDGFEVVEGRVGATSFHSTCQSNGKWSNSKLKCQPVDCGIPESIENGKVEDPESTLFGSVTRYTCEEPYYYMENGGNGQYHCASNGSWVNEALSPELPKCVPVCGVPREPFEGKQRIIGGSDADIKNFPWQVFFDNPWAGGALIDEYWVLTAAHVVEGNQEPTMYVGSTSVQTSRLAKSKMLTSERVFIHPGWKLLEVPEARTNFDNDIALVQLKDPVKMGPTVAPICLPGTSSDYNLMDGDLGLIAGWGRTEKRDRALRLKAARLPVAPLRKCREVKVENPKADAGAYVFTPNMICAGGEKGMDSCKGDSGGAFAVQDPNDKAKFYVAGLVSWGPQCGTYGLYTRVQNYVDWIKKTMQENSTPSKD
T1 chain 2: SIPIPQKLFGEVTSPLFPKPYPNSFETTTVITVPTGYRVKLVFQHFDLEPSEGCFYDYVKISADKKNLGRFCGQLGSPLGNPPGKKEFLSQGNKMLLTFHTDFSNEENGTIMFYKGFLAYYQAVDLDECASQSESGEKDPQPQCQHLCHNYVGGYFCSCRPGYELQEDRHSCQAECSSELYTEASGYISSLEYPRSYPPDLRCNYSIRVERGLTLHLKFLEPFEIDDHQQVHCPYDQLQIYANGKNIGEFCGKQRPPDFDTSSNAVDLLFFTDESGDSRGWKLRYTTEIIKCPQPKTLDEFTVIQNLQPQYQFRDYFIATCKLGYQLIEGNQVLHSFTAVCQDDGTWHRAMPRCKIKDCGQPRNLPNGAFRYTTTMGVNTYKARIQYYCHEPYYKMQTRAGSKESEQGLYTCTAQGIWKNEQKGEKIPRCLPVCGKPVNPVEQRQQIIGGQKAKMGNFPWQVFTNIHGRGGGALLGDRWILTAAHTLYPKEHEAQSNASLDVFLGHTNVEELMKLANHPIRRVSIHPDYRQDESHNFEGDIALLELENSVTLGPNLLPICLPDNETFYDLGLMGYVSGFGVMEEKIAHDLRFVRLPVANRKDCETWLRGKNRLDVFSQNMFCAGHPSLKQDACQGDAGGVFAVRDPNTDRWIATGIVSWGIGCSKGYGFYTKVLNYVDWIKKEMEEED
Test: SPR (Biacore T200), 37 C, pH 6.0; cyC1r2s2 captured by IPN009, antibody as analyte
recorded_metric: Kd (nM)
Report only the number, with the unit nM understood.

[[record]]
binder = "COS0637pHv17-G1A3FcgSil+LowpI (antibody, V domains shown, VH 24, VL 55, CH 45, CL 23) VH: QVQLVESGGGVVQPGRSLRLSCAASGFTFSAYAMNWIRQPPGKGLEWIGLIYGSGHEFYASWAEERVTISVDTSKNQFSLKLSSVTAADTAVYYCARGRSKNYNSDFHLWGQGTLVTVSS VL: DIQMTQSPSSLSASVGDRVTITCQAHEILHDKKNLAWYQQKPGQPPKLLIYGASQRESGVPSRFSGSGSGTDFTLTISSLQPEDFATYYCHGEFPHSSADLNHFGQGTKVEIKR"
unit_symbol = "nM"
experimental_result = 106


Consider the record given below.
Give Kd for COS0637pHv16-G1A3FcgSil+LowpI (antibody, V domains shown, VH 36, VL 55, CH 45, CL 23) VH: QVQLVESGGGVVQPGRSLRLSCAASGFTFSAYTMNWIRQPPGKGLEWIGLIYGSGHEFYASWAEERVTISVDTSKNQFSLKLSSVTAADTAVYYCARGRSKNYNSDFHLWGQGTLVTVSS VL: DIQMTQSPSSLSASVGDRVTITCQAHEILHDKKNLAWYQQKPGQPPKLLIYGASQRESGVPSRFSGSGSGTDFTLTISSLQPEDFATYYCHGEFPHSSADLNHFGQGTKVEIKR
91.2
